# system: T1, human LAG3 (construct not stated) (human, UniProt P18627 23-450, limits assumed)
# T1 construct: also called human LAG3 protein; antigen
# T1 sequence (looked up): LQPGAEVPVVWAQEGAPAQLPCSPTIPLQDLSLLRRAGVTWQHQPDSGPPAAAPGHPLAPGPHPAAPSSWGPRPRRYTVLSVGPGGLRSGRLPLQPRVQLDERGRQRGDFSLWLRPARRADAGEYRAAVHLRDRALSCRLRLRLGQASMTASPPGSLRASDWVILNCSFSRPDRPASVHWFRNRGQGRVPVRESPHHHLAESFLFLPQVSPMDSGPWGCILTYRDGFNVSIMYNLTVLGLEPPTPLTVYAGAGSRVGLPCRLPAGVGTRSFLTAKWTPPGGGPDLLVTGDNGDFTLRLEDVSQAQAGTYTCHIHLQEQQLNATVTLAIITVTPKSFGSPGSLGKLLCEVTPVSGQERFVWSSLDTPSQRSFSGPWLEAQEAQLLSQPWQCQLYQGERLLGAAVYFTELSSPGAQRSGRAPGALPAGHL
# assay.explanation: BLI Octet Red 96, affinity ranking

# binder, kon (M⁻¹ s⁻¹)
measured = [
    ("147H-3 (antibody, V domains shown, Common light chain; human gamma 1 / kappa constant domains) VH: QVQLVQSGAEVKKPGASVKVSCKASGYTFTNYWLGWVRQAPGQGLEWMGDIYPGGDYINYNEKFKGRVTLTADTSISTAYMELSRLRSDDTAVYYCARPNLPGDYWGQGTTVTVSS VL: DIVMTQSPLSLPVTPGEPASISCRSSKSLLHSNGITYLYWYLQKPGQSPQLLIYQVSNLASGVPDRFSGSGSGTDFTLKISRVEAEDVGVYYCAQNLELPWTFGGGTKVEIK", 92500),
    ("147H-6 (antibody, V domains shown, Common light chain; human gamma 1 / kappa constant domains) VH: QVQLVQSGAEVKKPGASVKVSCKASGYTFTNYWLGWIKQAPGQGLEWIGDIYPGGDYINYNEKFKGKATLTADTSISTAYMELSRLRSDDTAVYYCARPNLPGDYWGQGTTVTVSS VL: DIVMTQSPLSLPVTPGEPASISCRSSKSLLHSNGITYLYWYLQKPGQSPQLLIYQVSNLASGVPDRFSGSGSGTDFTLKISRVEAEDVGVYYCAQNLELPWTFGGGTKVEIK", 120000),
    ("147H-8 (antibody, V domains shown, Common light chain; human gamma 1 / kappa constant domains) VH: EVQLVQSGAEVKKPGASVKVSCKASGYTFTNYWLGWVRQAPGQGLEWMGDIYPGGDYINYNEKFKGRVTMTRDTSISTAYMELSRLRSDDTAVYYCARPNLPGDYWGQGTTVTVSS VL: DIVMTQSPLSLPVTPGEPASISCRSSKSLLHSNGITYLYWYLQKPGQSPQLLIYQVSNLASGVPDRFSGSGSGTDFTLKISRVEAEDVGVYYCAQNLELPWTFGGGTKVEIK", 165000),
]
